- TEST_SYSTEM: binding partner of C5A (XPA23)
- EXPERIMENT_NOTES: Biacore
Threshold-based label: fold difference in affinity vs original under 0.1 fold gives label 1, fold difference in affinity vs original not under 0.1 fold gives label 0.

BINDER: C5A (XPA23) VH V99A (antibody, V domains shown) VH: EVQLLESGGGLVQPGGSLRLSCAASGFTFSKYFMFWVRQAPGKGLEWVSVISPSGGMTRYADSVKGRFTISRDNSKNTLYLQMNSLRAEDTAVYYCARAGYGGNSDYWGQGTLVTVSS VL: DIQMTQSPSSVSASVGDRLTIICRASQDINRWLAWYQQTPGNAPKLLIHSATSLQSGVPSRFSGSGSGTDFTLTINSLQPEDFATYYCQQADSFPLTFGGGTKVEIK
CATEGORY_LABEL: label 1
--
BINDER: C5A (XPA23) VH S54T (antibody, V domains shown) VH: EVQLLESGGGLVQPGGSLRLSCAASGFTFSKYFMFWVRQAPGKGLEWVSVISPTGGMTRYADSVKGRFTISRDNSKNTLYLQMNSLRAEDTAVYYCARVGYGGNSDYWGQGTLVTVSS VL: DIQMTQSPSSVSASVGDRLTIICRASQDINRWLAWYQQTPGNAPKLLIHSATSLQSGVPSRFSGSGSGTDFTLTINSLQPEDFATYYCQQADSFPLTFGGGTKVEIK
CATEGORY_LABEL: label 0
--
BINDER: C5A (XPA23) VH Y32L (antibody, V domains shown) VH: EVQLLESGGGLVQPGGSLRLSCAASGFTFSKLFMFWVRQAPGKGLEWVSVISPSGGMTRYADSVKGRFTISRDNSKNTLYLQMNSLRAEDTAVYYCARVGYGGNSDYWGQGTLVTVSS VL: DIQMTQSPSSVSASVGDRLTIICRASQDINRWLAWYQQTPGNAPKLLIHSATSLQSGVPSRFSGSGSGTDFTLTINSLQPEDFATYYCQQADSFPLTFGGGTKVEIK
CATEGORY_LABEL: label 0

Please examine the following record next.
## Input Hi there! Is fold difference in affinity vs original for C5A (XPA23) VH S105G (antibody, V domains shown) VH: EVQLLESGGGLVQPGGSLRLSCAASGFTFSKYFMFWVRQAPGKGLEWVSVISPSGGMTRYADSVKGRFTISRDNSKNTLYLQMNSLRAEDTAVYYCARVGYGGNGDYWGQGTLVTVSS VL: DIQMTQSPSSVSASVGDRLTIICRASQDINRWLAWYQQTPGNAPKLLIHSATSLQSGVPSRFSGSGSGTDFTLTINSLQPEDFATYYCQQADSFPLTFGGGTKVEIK below 0.1 fold, do you know?
## Output label 0
